measurement.target: T1, PUF4 RNA-binding domain (Saccharomyces cerevisiae, UniProt P25339 537-888)
T1 sequence: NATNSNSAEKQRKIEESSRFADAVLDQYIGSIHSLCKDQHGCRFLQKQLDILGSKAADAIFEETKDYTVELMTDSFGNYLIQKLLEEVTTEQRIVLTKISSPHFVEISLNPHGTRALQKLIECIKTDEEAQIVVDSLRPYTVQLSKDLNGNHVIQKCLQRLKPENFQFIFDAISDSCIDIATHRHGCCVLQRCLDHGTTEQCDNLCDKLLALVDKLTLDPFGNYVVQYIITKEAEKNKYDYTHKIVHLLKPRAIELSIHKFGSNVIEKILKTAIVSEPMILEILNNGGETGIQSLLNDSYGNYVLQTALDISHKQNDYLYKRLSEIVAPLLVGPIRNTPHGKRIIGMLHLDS
protocol.description: Mg; RNA-MaP; 20 mM Na-HEPES pH 7.4, 30 mM KOAc, 0.75 mM MgCl2, 0.1% Tween-20, 5% glycerol, 0.1 mg/mL BSA, 2 mM DTT; 25 C; 0.0125-409.6 nM protein
test.context: tags: N-His6-TEV cleaved; C-SNAP kept, Cy3B-labelled; label: tethered on chip by stalled RNA polymerase
pKd: −log10 of the molar value.
Quick rule: pKd of at least 7 means y, below that means n.

binder: Ic_S2_P5E.1_K5.1_C5.1_H5.1_A5.1_[T5G]_[T6C]_[A7T]_F5.1_[T8G]_[T9G]_[A10T]_T5.1 (ssRNA) RNA: UUUGAUUAAUAUGAUAUCGUUCUUUCUUGUAGCUGGUUUCUUUCUCGAUAUCAUAUUAAUCUUU
class.label: n
//
binder: Id_ii_S2_P3E.2_K3.1_C3.2_[C-2G]_[T-1G]_H3.1_A3.1_F3.1_T3.2_[T9A]_[A10T] (ssRNA) RNA: UUUGAUUAAUAUGAUAUCGUUCUUUCUGGUGUAUAUAAUUUCUUUCUCGAUAUCAUAUUAAUCUUU
class.label: y
//
binder: Id_ii_S4_P3E.2_K3.1_C3.2_H3.1_A3.1_F3.1_T3.2_[T9A] (ssRNA) RNA: UUUGACAACUGAUCGUUCUUUCUCUUGUAUAUAAAUUCUUUCUCGAUCAGUUGUCUUU
class.label: y
//
binder: Ic_S4_P4E.1_K4.1_C4.1_H4.1_A4.1_[A6T]_[T7A]_F4.1_[T8C]_T4.1 (ssRNA) RNA: UUUGACAACUGAUCGUUCUUUCUUGUAUUACAUUCUUUCUCGAUCAGUUGUCUUU
class.label: n
//
binder: UCUCUUUGUAUUAGUUCUCUU (ssRNA) [Ic_S1_P4E.1_K4.1_C4.1_H4.1_A4.1_[A6T]_[T7A]_F4.1_[T8G]_[A9T]_T4.1]
class.label: n
//
binder: Ic_S4_P4E.1_K4.1_C4.1_H4.1_A4.1_[T5G]_[A6T]_[T7A]_F4.1_[T8C]_[A9T]_T4.1 (ssRNA) RNA: UUUGACAACUGAUCGUUCUUUCUUGUAGUACUUUCUUUCUCGAUCAGUUGUCUUU
class.label: n
